system: L1210 cells; assay: In vivo anti-tumor activity, L1210, single i.p. injection; parameters: species or system BDF1 mice; settings: single i.p., 12.5 mg/kg
Reported % T/C by item:
measurementName: % T/C (%)

NC1CCCCC1N.O=C([O-])C1CCCN1.O=C([O-])C1CCCN1.[Pt+2] [Compound 16, cis-bis-L-prolinato(DACH)Pt(II)] ... 144
NC1CCCCC1N.O=C1O[C@H]([C@@H](O)C(=O)[O-])[C@H](O)[C@H]1O.O=C1O[C@H]([C@@H](O)C(=O)[O-])[C@H](O)[C@H]1O.[Pt+2] [Compound 9] ... 127
NC1CCCCC1N.O=C([O-])[C@@H]1CCC[C@H]1C(=O)[O-].[Pt+2] (racemic) [Compound 27] ... 158
NC1CCCCC1N.O=C([O-])CN(CCO)CCO.O=C([O-])CN(CCO)CCO.[Pt+2] [Compound 34, Cis-bis-bicinato(DACH)Pt(II)] ... 165
NC1CCCCC1N.NCC(=O)[O-].NCC(=O)[O-].O.[Pt+2] (stereo not drawn) [Compound 32, Cis-bis-glycinato(DACH)Pt(II).1H2 O] ... 128
NC1CCCCC1N.O.O=C([O-])C1CCCC1.O=C([O-])C1CCCC1.[Pt+2] (stereo not shown) [Compound 25] ... 161
NC1CCCCC1N.O.O=C([O-])C1CCC1.O=C([O-])C1CCC1.[Pt+2] (stereo not shown) [Compound 30] ... 149

====

tested on: L1210 cells; assay: In vivo anti-tumor activity, L1210, single i.p. injection; design: species or system BDF1 mice; conditions: single i.p., 100 mg/kg
Reported % T/C by item:
measurementName: % T/C (%)

NC1CCCCC1N.O.O=C([O-])C1CCCCC1.O=C([O-])C1CCCCC1.[Pt+2] [Compound 22] ... 170
NC1CCCCC1N.O=C([O-])C1CCCN1.O=C([O-])C1CCCN1.[Pt+2] [Compound 16, cis-bis-L-prolinato(DACH)Pt(II)] ... 162
O.O.O=C([O-])C[N-]CC(=O)O.[NH-]C1CCCCC1[NH-].[Pt] [Compound 11, iminodiacetato(DACH)Pt(II).2H2 O] ... 109

====

Reported Calculated LD50 by item:
tested on: Male albino mice; experiment: Acute toxicity, single intraperitoneal injection (Example 19); format: in vivo; settings: single i.p., 14 days
measurementName: Calculated LD50 (mg/kg)

NC1CCCCC1N.O=C1O[C@H]([C@@H](O)C(=O)[O-])[C@H](O)[C@H]1O.O=C1O[C@H]([C@@H](O)C(=O)[O-])[C@H](O)[C@H]1O.[Pt+2] ... 140
NC1CCCCC1N.O.O=C1OC(C(O)CO)C([O-])=C1O.O=C1OC(C(O)CO)C([O-])=C1O.[Pt+2] (stereo not drawn) [Compound 3, cis-bis-ascorbato(DACH)Pt(II).1H2 O] ... 125
N[C@H]1CCCC[C@@H]1N.O=C1O[C@H]([C@@H](O)CO)C([O-])=C1O.O=C1O[C@H]([C@@H](O)CO)C([O-])=C1O.[Pt+2] ... 90
O.O.O=C([O-])C[N-]CC(=O)O.[NH-]C1CCCCC1[NH-].[Pt] ... 115

The reported numbers originate from patent US4661516A.
